- MEASUREMENT_PROTOCOL: yeast display, Sf9 membrane polyspecificity reagent, FACS + sequencing; frameworks hold sequencing errors

SEQUENCE_ENTRY: QVQLVESGGGLVQAGGSLRLSCAASGRTFYGYAMGWYRQAPGKERELVASISWSTGSTHYADSVKGRFTISRDNAKNTVYLQMNSLKPEDTAVYYCAAPFWRDSYVQIDYDYWGQGTQVTVSS
polyreactivity (PSR sort gate): low polyreactivity
//
SEQUENCE_ENTRY: QVQLVESGGGLVQEGGSLCLSCAASGIFVYNAMGWYRQAPGKEREFVAAINKSGASTFYADSVKGRFTISRDNAKNTVYLQMNSLKPEDTAVYYCNAGTLYYRYRWGHYYDSWGQGTQVTVSS
polyreactivity (PSR sort gate): low polyreactivity
//
SEQUENCE_ENTRY: QVQLVESGGGLVQAGGSLRLSCAASGFIFYDYAMGWYRQAPGKERELVASISWSTGSTYYADSVKGRFTISRDNAKNTVYLQMNSLKPEDTADYYCAADGYPLQLYNYWGQGTQVTVSS
polyreactivity (PSR sort gate): low polyreactivity
//
SEQUENCE_ENTRY: QVQLVESGGGLFQARGSLRLSCAASGSTFGFYARGWYRQATGKERELVAASSRGGSTNYADSVKGRFTISRDNAKNTVYLQLNSLKPEDTAGYYCAKAYHATSDYWGQGTQVTVSS
polyreactivity (PSR sort gate): low polyreactivity

---

- MEASUREMENT_PROTOCOL: yeast display, Sf9 membrane polyspecificity reagent, FACS + sequencing; frameworks hold sequencing errors
REPORTED_ENDPOINT: polyreactivity (PSR sort gate)

SEQUENCE_ENTRY: QVQLVESGGGLVQAGGSLRLSCAASGITFKRYTMGWYRQAPGKERELVADITWSGGSTYADSVKGRFTISRDNAKNTVYLQMNSLKPEDTAVYYCAAEWQTWYGVEYDYWGQGTQVTVSS
polyreactivity (PSR sort gate): high polyreactivity
//
SEQUENCE_ENTRY: QEQLEESGGGLVQAGGRLRLSCAASGSTFGINARGWYRQAPGKEREVVASITRRGGSTYYADSVKGRFTISRDNAKNTVYLQMNSLKPEDTAVYYCNKTYRYGTPLYYYWGQGTQVTVSS
polyreactivity (PSR sort gate): high polyreactivity
//
SEQUENCE_ENTRY: QVQLVESGGGLVQAGGSLRLSCAASGRIFRYYAMGWYIQAPGKERELVAAISGSGGSTYYADSVKGRFTISRDNAKNTVYLQMNSLKPEDTAVYYCNARYRIPSGEGDHWGQGTQVTVSS
polyreactivity (PSR sort gate): low polyreactivity
//
SEQUENCE_ENTRY: QVQLVESGGGLVQAGGSLRLSCAASGRTFYIYAMGWYRQAPGKERELVAAITSVGSTNYADSVKGRFTISRDNAKNTVYLQMNSLKPEDTAVYYCAAASTEGTSGDYDYWGQGTQVTVSS
polyreactivity (PSR sort gate): low polyreactivity
//
SEQUENCE_ENTRY: QVQLVESGGGLVQAGGSLRLSCAASGSTFPSYAMGWYRQAPGKERELVAAINSGGGTNYADSVKGRFTISRDNAKNTVYFQMNSLKPEDTAVYYCAKSRDDYTNTEGGYWGQGTQVTVSS
polyreactivity (PSR sort gate): low polyreactivity

Request: What value of measured polyreactivity (PSR sort gate) is listed for `QVQLVESGGGLVQAGGSLRLSCAASGSTFLRNAMGWYRQAPGKERELVATITNGGSTYYADSVKGRFTISRDNAKNTVYLQMNSLKPEDTAVYYCATRSSYWSWLRYGYGYWGQGTQVTVSS` ?
Result: low polyreactivity

Request: And then `QVQLVESGGGLVQAGGSLRLSCAASGITFTDYDMGWYRQAPGKERELVAAISNGGGSTYYADSVKGRFTISRDNAKNTVYLQMYSMKPEDTAVYYCAAERVPSWWVEWGVAQWDDYWGQGTQVTVSS` , what is it?
Result: low polyreactivity

Request: And then `QVQLVESGGGLVQAGGSLRLSCAASGRIFTKYAMGWYRQAPGKDRELVAAISYRGGSTYYADSVKGRFTISRDNAQNTVYLQMNSLKPEDTAVYYCATSWTPNYFVTSDYWGQGTQVTVSS` , what is it?
Result: high polyreactivity
